assay_target: Serine/threonine-protein phosphatase PP1-alpha catalytic subunit (Homo sapiens) (UniProt P62136)
Sequence (P62136 whole entry, looked up): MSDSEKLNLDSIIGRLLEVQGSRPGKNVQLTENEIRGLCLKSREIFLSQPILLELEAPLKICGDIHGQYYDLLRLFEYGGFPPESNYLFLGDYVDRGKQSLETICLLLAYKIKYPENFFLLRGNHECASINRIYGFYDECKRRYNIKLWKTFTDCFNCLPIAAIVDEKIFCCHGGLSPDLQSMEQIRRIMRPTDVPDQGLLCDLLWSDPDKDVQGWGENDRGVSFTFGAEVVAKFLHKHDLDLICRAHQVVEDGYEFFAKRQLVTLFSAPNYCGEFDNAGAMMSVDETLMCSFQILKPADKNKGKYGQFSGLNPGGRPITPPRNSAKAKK
measurement_description: inhibition of human PP1 catalytic subunit – biochemical, fluorescence, OMFP substrate, single point, counter-screen for PP5 inhibitor project, primary screen (AID 2235)
test_context: purified PP1alpha, at 6.7 µM, hits give high values
The campaign covered roughly 320,000 compounds. About 2,800 (0.88%) were called active. This is one part of a sample in which actives are shown more often than they occur.
Assignment: determine reported inhibition for the given compounds.
Express it in %; write the number only.

*Q* Which inhibition value is on record for `CC(=O)Oc1cc2c(C(=O)NCCN3CCOCC3)c(C)oc2c2ccccc12` ?
*A* -0.6

*Q* Give its inhibition value. Item: `O=C(NCc1ccc2c(c1)OCO2)c1cc(F)c(F)cc1Cl`
*A* 2.6

*Q* Consider the compound `Cc1ccccc1/[N+]([O-])=C/c1ccncc1` and give its measured inhibition.
*A* -3.82

*Q* For the compound shown here, `Cc1nc2c(C(=O)NCc3ccc4c(c3)OCO4)c[nH]n2c(=O)c1Cc1ccccc1F` , give the reported inhibition.
*A* 42.6

*Q* Suppose we examine the compound `CCOC(=O)C1=C(O)/C(=C/c2ccc(OCC(=O)Nc3ccc(C)cc3)cc2)N=C1C` ; what inhibition value has been reported?
*A* 15.1

*Q* Which inhibition is listed for `Cc1ccc(-c2nc3ccccc3[nH]2)cc1N` ?
*A* -2.81

*Q* Need inhibition of `Cc1nn(C)cc1CNC(=O)Nc1ccc(Cl)cc1` , thanks.
*A* -6.68

*Q* I am curious: what inhibition value has been reported for `Clc1ccccc1CSc1nnc(-c2ccco2)c(-c2ccco2)n1` ?
*A* 24.6

*Q* Which inhibition reading was recorded for the compound `CCn1c(SCC(=O)Nc2ccc(Br)cc2)nc2sc3c(c2c1=O)CCN(C)C3` ?
*A* 3.91

*Q* Suppose we examine the compound CCOC(=O)C1=C(CCc2ccccc2)NC(=O)NC1c1ccc2ccccc2c1 (stereo not drawn) ; what inhibition value has been reported?
*A* 9.37

*Q* If you can, please state the reported inhibition value of `N#Cc1ccc(Oc2cc(C(F)(F)F)nc(-c3ccccn3)n2)cc1` .
*A* -1.29

*Q* # query: inhibition of entry `N=c1c2c(-c3ccccc3)c(-c3ccccc3)n(Cc3ccccc3)c2ncn1CCCO`
*A* 7.81

*Q* What does the record list as inhibition for CCN(CC)CCC(c1ccc2c(c1)OCO2)c1c(OC)cc(OC)c2c(-c3ccccc3)cc(=O)oc12 (stereo not drawn) ?
*A* 1.96

*Q* Form field: reported inhibition of `CCOC(=O)c1nn(-c2cccc(C)c2)cc1C(=O)c1ccccc1`
*A* 1.33

*Q* Entry `O=C(Nc1cccc(-c2nc3ccccc3[nH]2)c1)c1ccc(C(=O)Nc2cccc(-c3nc4ccccc4[nH]3)c2)cc1` : reported inhibition = ?
*A* 18.9

*Q* Requested read-out: inhibition. Entry: `O=c1cc(O)nc(SCc2ccccc2Cl)[nH]1`
*A* 3.47

*Q* // inhibition lookup, key: `O=C(NCc1ccc2c(c1)OCO2)C12CC3CC(CC(C3)C1)C2`
*A* -3.56

*Q* // query inhibition value for entry `CCC(=O)OCCNc1nc(-c2ccccc2)nc2ccccc12`
*A* 0.15

*Q* Need inhibition of `COC(=O)C1=C(O)/C(=C/c2ccc(OCC(=O)Nc3ccccc3)cc2)N=C1C` , thanks.
*A* 1.71

*Q* So what's the measured inhibition for this one? `CN(C(=O)CN(CCO)CC(=O)N(C)C(C)(C)Cc1ccccc1)C(C)(C)Cc1ccccc1`
*A* 21.1

*Q* Request the reported inhibition associated with `COc1cc2nc(Cl)nc(NCCO)c2cc1OC`
*A* -3.14

*Q* Tell me the measured inhibition of `Cc1cc(C)c(C(N)=O)c(Cl)n1` , please.
*A* -1.75

*Q* What value of measured inhibition is listed for `CCOc1ccc(NC(=O)CCNC(=O)c2ccc(Br)cc2)cc1` ?
*A* 1.21

*Q* Need inhibition, item `Cc1cc(-c2csc(N)n2)c(C)n1-c1ccccc1`
*A* 25.1

*Q* Fill in: inhibition of `Cc1ccc2c(Cl)c(C(=O)Nc3nn[nH]n3)sc2c1` is ___
*A* 10.3

*Q* // returns reported inhibition for input `Cc1ccc(OCC(=O)N2CCN(S(=O)(=O)c3ccc(Cl)s3)CC2)cc1C`
*A* 2.28

*Q* What value of inhibition has been recorded for this entry: `COc1cnc(-c2ccccn2)nc1Oc1ccc(C(C)(C)C)cc1`
*A* 57.9

*Q* Entry under review: `OCCNc1nc(Nc2ccc(Cl)c(Cl)c2)nc2ccccc12` . Reported inhibition?
*A* 23.4
